Where these numbers come from: the supplement of paper PMC9732359

This listing pairs sequences with measured protein stability index.
- Test description: protein stability index of a GFP-peptide fusion (yeast GPS) (PSI 1-4); higher = more stable; sorted into four equal gates, so the index is relative within each strain
- Condition summary: pdr5∆
No unit in the answer, please; the number alone is enough.

Consider the following illustrative entries.
{"Primary sequence": "RKHRNAQFAGRASIEYY [DIS3]", "protein stability index": 3.11}
{"Primary sequence": "TFEKHDRVEDICERIFE [RRI2]", "protein stability index": 3.05}
{"Primary sequence": "TQTVSGTPPMLHQRTHK [DSN1]", "protein stability index": 3.11}
{"Primary sequence": "EAEMAYVKAVSDKAQLN [SMC4]", "protein stability index": 2.33}

Identify protein stability index associated with the sequence CSSATVPKHMLDKLDEI [AAR2]
3.05

Indicate the recorded protein stability index value for this sequence: KHLEDNTLLISGPFKVN [RPL6A]
2.01

Retrieve protein stability index measured for FLIDVLKIYAQIEKKEI [YCG1] and print it.
1.93

Using known records, supply protein stability index for SQKHNGRILKWLWPLCR [CDC53]
1.33
